Tested on: RPMI-8226 leukemia
Experiment: NCI-60 one-dose screen, 48 h
Settings: 10 µM unless noted
About 83,000 compounds went through this panel and 20% of them were active in at least one assay; those are over-represented in the sample as a whole. Activity calls are given as the source filed them. How the source made its calls: active means growth percent below 10; inactive means the rest.
Response enum: active, inactive

### Prompt Dear colleague, could you share the recorded outcome for "Cc1nc(Cl)cc(N(c2cc(Cl)nc(C)n2)c2ncc(C(=O)Nc3c(C)cccc3Cl)s2)n1" when you have a moment?
### Response inactive

### Prompt I would be grateful if you could indicate the recorded call for O=C1CC(c2ccccc2)Cc2nc3ccc(Cl)cc3cc21 (centres undefined) .
### Response inactive
